FYI, the data here is from ChEMBL document CHEMBL1201862.

System: CAKI-1
runDescription: NCI tumour cell line growth inhibition, 48 h
Calls of active or inactive are those of the source. Rule as the data show it: active = GI50 up to about 1.1 µM and inactive = higher. Square brackets hold non-standard residues; d marks the D form. Peptide text beside a SMILES is read from it. * marks the point of attachment. ξ: configuration not given here. Propanoyl(3-(4-MeO-Ph)) = COc1ccc(CCC(=O)*)cc1; Thr(3ξ) = CC(O)[C@H](N)C(=O)O; dNMeL = CN[C@H](CC(C)C)C(=O)O; ξLac = CC(O)C(=O)O
Possible outcomes: active, inactive

{"compound": "CCN(CC)C(=O)N1CN(c2ccccc2)C2(CCN(CCCSc3ccc(F)cc3)CC2)C1=O", "category": "inactive"}
{"compound": "O=S(=O)(Nc1nccs1)c1ccc(Nc2nc(-c3cccs3)nc3ccc(I)cc23)cc1", "category": "inactive"}
{"compound": "OCCSCc1cc(Cl)cc(Cl)c1O", "category": "inactive"}
{"compound": "COc1ccc2c(c1)CC[C@@H]1C2CC[C@]2(C)C(=O)N(CCN(C)C)C(=O)CC12 (some centres not stated)", "category": "inactive"}
{"compound": "c1ccc2c3c([nH]c2c1)[C@H]1C2CCCCN2CN1CC3 (some centres not stated)", "category": "inactive"}
{"compound": "Cc1c(-c2ccccc2)c(C#N)c2nnn(C3CCCCC3)c(=O)n12", "category": "active"}
{"compound": "CCc1cc2c(c3c1CCCC3=O)CC1(Cc3ccc(C(=O)OC)cc3C1)C2 (configuration not stated)", "category": "inactive"}
{"compound": "Cc1cc(/N=C/c2ccc(F)cc2)n(-c2ccccc2)n1", "category": "inactive"}
{"compound": "COc1c2c(cc3c1-c1c(cc4c(c1OC)OCO4)C1OC3C(C)C1C)OCO2.COc1cc2c(c(OC)c1OC)-c1c(cc3c(c1OC)OCO3)C1OC2C(C)C1C (configuration not stated)", "category": "inactive"}
{"compound": "O=c1[nH]c2c(S)nc(O)nc2n1-c1ccccc1", "category": "inactive"}
{"compound": "Cc1ccc(C(=O)O)cc1NC(=O)c1cc(/C=C/c2ccccc2)[nH]c(=S)n1", "category": "inactive"}
{"compound": "Cc1ccc(S(=O)(=O)NCCCCC(N)C(=O)O)cc1 (configuration not stated)", "category": "inactive"}
{"compound": "N#CC(c1cc(Cl)ncn1)c1nc2ccccc2s1 (configuration not stated)", "category": "inactive"}
{"compound": "COc1cc2c(c(OC)c1OC)-c1ccc(=O)c(O)cc1[C@@H](NC(C)=O)CC2", "category": "inactive"}
{"compound": "NS(=O)(=O)c1ccc(/N=N/c2cnc(O)c(O)c2)cc1", "category": "inactive"}
{"compound": "NCC(=O)Nc1ccc(Cl)cc1C(=O)c1ccc[nH]1", "category": "inactive"}
{"compound": "N#Cc1sc2c(c1OC(=O)c1ccccc1)c(=O)n(-c1ccccc1)c(=S)n2-c1ccccc1", "category": "inactive"}
{"compound": "CNC(=S)N/N=C(\\C(=N/NC(=S)NC)c1ccccn1)c1ccccn1", "category": "inactive"}
{"compound": "CCOC(=O)c1ccc(/N=C2\\Sc3nc4ccccc4n3\\C2=N\\c2ccc(C(=O)OCC)cc2)cc1", "category": "inactive"}
{"compound": "COc1cccc(C(=O)Nc2c3ccccc3nc3ccccc23)c1OC", "category": "inactive"}
{"compound": "CC(=O)Oc1ccc2c(c1)O/C(=C\\c1ccc(O)cc1)C2=O", "category": "inactive"}
{"compound": "COC(=O)[C@@H](NC(=O)[C@@H](CC(C)C)N(C)C(=O)[C@@H]1CCCN1C(=O)C(C)O)C(C)OC(=O)CCc1ccc(OC)cc1 (some centres not stated) (H-[ξLac]P[dNMeL][Thr(3ξ)](Propanoyl(3-(4-MeO-Ph)))-OMe)", "category": "inactive"}
{"compound": "Cc1cc(C)cc(C(=N)c2ccccc2Cc2cccc3ccccc23)c1", "category": "inactive"}
{"compound": "CCC(c1ccc2cc(O)ccc2c1)C(C)(C)C(=O)O (configuration not stated)", "category": "inactive"}
{"compound": "CCN(CC)CCNc1ccc2ncn3c4c(OC)ccc(OC)c4c(=O)c1c23", "category": "inactive"}
{"compound": "COc1cc([C@@H]2c3cc4c(cc3[C@@H](NC(=O)c3ccccc3)C3COC(=O)[C@@H]32)OCO4)cc(OC)c1O (some centres not stated)", "category": "inactive"}
{"compound": "COC(=O)CC[C@@H](NC(=O)C(C)NC(=O)COC1C(O)C(COC(=O)CCCCCCCCCCNC(=O)c2ccc([N+](=O)[O-])c3[nH]c4cc(Br)ccc4c(=O)c23)OC(OCc2ccccc2)C1NC(C)=O)C(N)=O (some centres not stated)", "category": "inactive"}
{"compound": "CC(NC(=O)OC(C)(C)C)C(=O)NC(Cc1ccccc1)C(=O)NCC(=O)ON=C1CCCC1 (configuration not stated)", "category": "inactive"}
{"compound": "c1ccc2/c3[nH]/c(c2c1)=N\\c1ccc(cc1)-c1nc2cc(ccc2o1)/N=c1/[nH]/c(c2ccccc12)=N/c1ccc2nc(oc2c1)-c1ccc(cc1)\\N=3", "category": "inactive"}
{"compound": "COc1cccc(C2c3cc4c(cc3OC(NNc3ccccc3)C2C)OCO4)c1OC (configuration not stated)", "category": "inactive"}
{"compound": "O=C(O)C1CCCN1Cc1c[nH]c2ccccc12 (configuration not stated)", "category": "inactive"}
{"compound": "N=C(N)N/N=C/c1c(-c2ccc(Cl)c([N+](=O)[O-])c2)nc2sccn12", "category": "inactive"}
